Entries and their inhibition values follow.
# Subject Of Test: PI3-kinase p110-alpha/p85-alpha (Homo sapiens) (UniProt P27986+P42336)
# Method Description: Inhibition of recombinant human full length N-terminal His-tagged/untagged p110alpha/p85alpha expressed in baculovirus expression system at 500 nM using PIP2 as substrate after 1 hr by Kinase-Glo reagent-based assay relative to control
Write the value in % as a bare number.

Nc1ncc(-c2nc(N3CCOCC3)c3cnn(CCCCCCC(=O)NO)c3n2)cn1 ... 1.2

Lookup result for COc1ccc(-c2nc(N3CCOCC3)c3cnn(CCCCCCC(=O)NO)c3n2)cc1 ; measured inhibition: -1

For this molecule ( Nc1ccc(-c2nc(N3CCOCC3)c3cnn(CCCCCCC(=O)NO)c3n2)cc1 ), measured inhibition is 16

Looking up O=C(/C=C/c1ccc(Cn2ncc3c(N4CCOCC4)nc(N4CCOCC4)nc32)cc1)NO , I see its inhibition listed as -3

Value of measured inhibition for the entry O=C(CCCn1ncc2c(N3CCOCC3)nc(N3CCOCC3)nc21)NO : 17

---

# Subject Of Test: Histone deacetylase 3 (Homo sapiens, UniProt O15379)
# Sequence (O15379 whole entry): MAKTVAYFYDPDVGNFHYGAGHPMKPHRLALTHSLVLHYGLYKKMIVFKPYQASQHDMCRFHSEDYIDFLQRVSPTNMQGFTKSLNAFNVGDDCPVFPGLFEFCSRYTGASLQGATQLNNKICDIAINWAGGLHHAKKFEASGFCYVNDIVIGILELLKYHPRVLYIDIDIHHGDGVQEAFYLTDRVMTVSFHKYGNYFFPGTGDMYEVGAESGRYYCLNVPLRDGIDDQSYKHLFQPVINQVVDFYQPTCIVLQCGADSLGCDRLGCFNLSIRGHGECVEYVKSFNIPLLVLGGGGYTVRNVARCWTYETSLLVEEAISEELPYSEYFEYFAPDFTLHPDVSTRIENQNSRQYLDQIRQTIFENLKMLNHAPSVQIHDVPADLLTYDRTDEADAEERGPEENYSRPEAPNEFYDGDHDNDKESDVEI
# Method Description: Inhibition of recombinant full length HDAC3 (unknown origin) using Ac-peptide-AMC as substrate preincubated for 15 mins followed by substrate addition and measured after 1 hr by fluorescence assay
Measure Name: pIC50
Note on units: pIC50 is unitless, being -log10 of a concentration expressed in mol/L.

C[C@@H]1CN(C(=O)Nc2ccc(-c3nc(N4CCOCC4)c4cnn(CCCCCCC(=O)NO)c4n3)cc2)CCO1 ... 8.83

Now let's try a different one.
Recorded result, Nc1ccc(-c2nc(N3CCOCC3)c3cnn(CCCCCCC(=O)NO)c3n2)cc1 , pIC50: 8.38

---

# Tested on: OCI-AML-3
# Method Description: Antiproliferative activity against human OCI-AML3 cells after 72 hrs by MTT assay
# Format: functional, cell-based
# Conditions Used: OCI-AML-3, 72 h
Returns: string. Value is 1.0 if measured IC50 is below 10 nM, and 0.0 if it is greater than or equal to it.

Record excerpt, results attached:
CCCCNC(=O)Nc1ccc(-c2nc(N3CCOCC3)c3cnn(CCCCCCC(=O)NO)c3n2)cc1 ... 1.0
O=C(CCCCCCn1ncc2c(N3CCOCC3)nc(-c3ccc(NC(=O)N4CCOCC4)cc3)nc21)NO ... 0.0
CCN1CCN(C(=O)Nc2ccc(-c3nc(N4CCOCC4)c4cnn(CCCCCCC(=O)NO)c4n3)cc2)CC1 ... 1.0
O=C(CCCCCCn1ncc2c(N3CCOCC3)nc(-c3ccc(NC(=O)N4CCNCC4)cc3)nc21)NO ... 0.0
CO[C@H]1C[C@@H]2CC[C@@H](C)[C@@](O)(O2)C(=O)C(=O)N2CCCC[C@H]2C(=O)O[C@H]([C@H](C)C[C@@H]2CC[C@@H](O)[C@H](OC)C2)CC(=O)[C@H](C)/C=C(\C)[C@@H](O)[C@@H](OC)C(=O)[C@H](C)C[C@H](C)/C=C/C=C/C=C/1C [SIROLIMUS] ... 0.0
O=C(CCCCCCn1ncc2c(N3CCOCC3)nc(-c3ccc(NC(=O)N4CCSCC4)cc3)nc21)NO ... 0.0

Q) I'd appreciate it if you could check whether CCNC(=O)Nc1ccc(-c2nc(N3CCOCC3)c3cnn(CCCCCCC(=O)NO)c3n2)cc1 has IC50 smaller than 10 nM.
A) 0.0

Q) Quick check: IC50 of CN1CCN(C(=O)Nc2ccc(-c3nc(N4CCOCC4)c4cnn(CCCCCCC(=O)NO)c4n3)cc2)CC1 under 10 nM?
A) 0.0
